Target Under Test: HLA-B*2705 expressed on C1R-neo cells (human, UniProt P01889 25-362; P61769 21-119)
Assay Protocol: ECL cell binding, C1R-neo B*2705 cells, pH 6.0
Recorded max RLU values for a group of binders are listed next.
A number alone suffices; assume RLU.

// worked examples, max RLU included
| Binder | max RLU, RLU |
| --- | --- |
| H4H2499N9 (antibody, V domains shown) VH: QVQLVESGGGLVKPGGSLRLSCAASGFTFSDYYMSWIRQAPGKGLEWVSYISTSGSTIYYPDSVKGRFTISRDNAKNSLNLQMNSLRAEDTAVYYCLLHYYYGMDVWGQGTTVTVSS VL: EIVLTQSPATLSLSPGERAPLSCRASHHVHSHLAWYQQKPGQPPRLLIYDASNRATGIPARFSGSGSGTDFTLTISSLEPEDFAVYYCQQRSNWPWTFGQGTKVEIK | 15900 |
| H4H2499N5 (antibody, V domains shown) VH: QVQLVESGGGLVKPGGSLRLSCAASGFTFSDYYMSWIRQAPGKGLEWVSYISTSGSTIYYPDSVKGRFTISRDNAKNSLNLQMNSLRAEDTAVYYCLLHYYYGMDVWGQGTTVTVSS VL: EIVLTQSPATLSLSPGERAPLSCRASHSVHSHLAWYQQKPGQPPRLLIYDASNRATGIPARFSGSGSGTDFTLTISSLEPEDFAVYYCQQRSNWPWTFGQGTKVEIK | 19500 |
| H4H2499N15 (antibody, V domains shown) VH: QVQLVESGGGLVKPGGSLRLSCAASGFTFSDYYMSWIRQAPGKGLEWVSYISTSGSTIYYPDSVKGRFTISRDNAKNSLNLQMNSLRAEDTAVYYCLHHHYYGMDHWGQGTTVTVSS VL: EIVLTQSPATLSLSPGERAPLSCRASQSVSSYLAWYQQKPGQPPRLLIYDASNRATGIPARFSGSGSGTDFTLTISSLEPEDFAVYYCQQRSNWPWTFGQGTKVEIK | 9680 |
| H4H2499N6 (antibody, V domains shown) VH: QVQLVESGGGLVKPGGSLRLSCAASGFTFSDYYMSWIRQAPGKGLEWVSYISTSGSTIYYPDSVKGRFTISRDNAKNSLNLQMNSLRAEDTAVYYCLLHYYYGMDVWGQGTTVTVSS VL: EIVLTQSPATLSLSPGERAPLSCRASHHVSSHLAWYQQKPGQPPRLLIYDASNRATGIPARFSGSGSGTDFTLTISSLEPEDFAVYYCQQRSNWPWTFGQGTKVEIK | 20000 |

Turning now to a further binder:
**Query** Which value of max RLU has been reported for H4H2499N14 (antibody, V domains shown) VH: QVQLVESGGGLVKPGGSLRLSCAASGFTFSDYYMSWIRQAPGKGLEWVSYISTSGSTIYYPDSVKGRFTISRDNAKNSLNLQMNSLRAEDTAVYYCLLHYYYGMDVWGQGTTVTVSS VL: EIVLTQSPATLSLSPGERAPLSCRASQSVSSYLAWYQQKPGQPPRLLIYDASNRATGIPARFSGSGSGTDFTLTISSLEPEDFAVYYCQQRHHWPWTFGQGTKVEIK in the records?
**Result** 19100

These data points were gathered from patent US20130259876A1.
